Where do the numbers come from? From patent US11053304.

Molecular target: SARS-CoV-2 Receptor Binding Domain (RBD) protein (SARS-CoV-2, UniProt P0DTC2 319-541)
Test: SPR, scFv captured via anti-V5, RBD as analyte
property-label: pKd
On this scale, pKd is minus log10 of a concentration expressed in M (mol/L).

Worked examples, 4 binders total:
binder | pKd
COVID19_P08_C08 (scFv, V domains shown) VH: EVQLVESGGGLVQPGGSLRLSCAASGFTFRNYAMHWVRQAPGKGLEWVSAVSSSGGSPYYADSVKGRFTISRDNSKNTLYLQMNSLRAEDTAVYYCVTNMDNSRDYFPHYFHDMDVWGQGTLVTVSS VL: DIVMTQSPLSLPVTPGEPASISCRSSQSLVHSDGDNYLNWYLQKPGQSPQLLIYSGSYRASGVPDRFSGSGSGTDFTLKISRVEAEDVGVYYCMQGTHWPLTFGGGTKVEIKR | 8.74
COVID19_P08_G07 (scFv, V domains shown) VH: EVQLVESGGGLVQPGGSLRLSCAASGFTFSTYGMHWVRQAPGKGLEWVSTISGNGVSTSYADSVKGRFTISRDNSKNTLYLQMNSLRAEDTAVYYCVTNMDNSRDYFPHYFHDMDVWGQGTLVTVSS VL: DIVMTQSPLSLPVTPGEPASISCRSSQSLVYSDGYTYLNWYLQKPGQSPQLLIYQVSNRASGVPDRFSGSGSGTDFTLKISRVEAEDVGVYYCMQALQTPALTFGGGTKVEIKR | 7.98
COVID19_P20_C11 (scFv, V domains shown) VH: EVQLVESGGGLVQPGGSLRLSCAASGFTFSSYSMNWVRQAPGKGLEWVSGISGSGDRTYYADSVKGRFTISRDNSKNTLYLQMNSLRAEDTAVYYCSMQRDNSRDYFPHYFHDMDVWGQGTLVTVSS VL: DIVMTQSPLSLPVTPGEPASISCRSSQSLLYSDGDTYLDWYLQKPGQSPQLLIYLGSIRAPGVPDRFSGSGSGTDFTLKISRVEAEDVGVYYCMQSVQTPWTFGGGTKVEIKR | 8.53
COVID19_P19_E01 (scFv, V domains shown) VH: EVQLVESGGGLVQPGGSLRLSCAASGFTFSSYAMHWVRQAPGKGLEWVAVVSRSGGSTFYADSVKGRFTISRDNSKNTLYLQMNSLRAEDTAVYYCVTQRDNSRDYFPHYFHDMDVWGQGTLVTVSS VL: DIVMTQSPLSLPVTPGEPASISCRSSQSLVHSNGDTYLDWYLQKPGQSPQLLIYLGSIRAPGVPDRFSGSGSGTDFTLKISRVEAEDVGVYYCQQSYSTPWTFGGGTKVEIKR | 7.38

Alright, here's another binder for you.
Lookup: What value of pKd has been recorded for this entry: COVID19_P20_G06 (scFv, V domains shown) VH: EVQLVESGGGLVQPGGSLRLSCAASGFTFSNSDMNWVRQAPGKGLEWVSGISGGGAGTYYADSVKGRFTISRDNSKNTLYLQMNSLRAEDTAVYYCVTYRDNSRDYFPHYFHDMDVWGQGTLVTVSS VL: DIVMTQSPLSLPVTPGEPASISCRSSQSLVHSNGDTYLDWYLQKPGQSPQLLIYLGSIRAPGVPDRFSGSGSGTDFTLKISRVEAEDVGVYYCQQSYSTPWTFGGGTKVEIKR
Found: 8.05
